FYI, the data here is from ChEMBL document CHEMBL1134181.

target_system: Cannabinoid receptor 1 (Rattus norvegicus)
Sequence (P20272 whole entry): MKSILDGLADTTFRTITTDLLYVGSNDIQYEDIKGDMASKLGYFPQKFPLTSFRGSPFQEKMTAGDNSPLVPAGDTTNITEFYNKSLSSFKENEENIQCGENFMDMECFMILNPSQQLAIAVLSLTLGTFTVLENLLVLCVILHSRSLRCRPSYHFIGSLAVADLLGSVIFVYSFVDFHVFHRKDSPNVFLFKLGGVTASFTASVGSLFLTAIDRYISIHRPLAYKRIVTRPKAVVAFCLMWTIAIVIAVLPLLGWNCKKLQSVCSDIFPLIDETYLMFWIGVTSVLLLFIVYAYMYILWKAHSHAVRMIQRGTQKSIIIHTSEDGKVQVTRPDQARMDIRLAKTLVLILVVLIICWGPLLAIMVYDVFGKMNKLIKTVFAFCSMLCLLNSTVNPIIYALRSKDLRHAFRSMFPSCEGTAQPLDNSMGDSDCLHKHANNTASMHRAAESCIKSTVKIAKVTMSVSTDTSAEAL
assay_method_text: Concentration required to displace 0.4 nM [3H]SR-141,716A from CB1 receptor in rat brain preparations in the presence of 0.1 mM phenylmethyl sulfonyl fluoride
Could you please report measured pKi for the items listed next?
Numbers only, as −log10 of the molar value.

Solved entries:
>>> readout_number("CCCCC/C=C\\C/C=C\\CC/C=C\\CCCC(=O)NCCc1ccc(O)c(O)c1")
5.76
>>> readout_number("CC/C=C\\C/C=C\\C/C=C\\C/C=C\\C/C=C\\CCCCCC(=O)NCCc1ccc(O)c(O)c1")
5.86

Please turn your attention to the following entry.
Field request: pKi | item: CCCCC/C=C\C/C=C\C/C=C\C/C=C\CCCC(=O)NCCc1ccc(O)c(O)c1
6.42

----------
Organism: Rattus norvegicus
assay_method_text: Tested to induce analgesia in hot plate test, expressed as percent of latency time (p<0.05)
Assay type: functional
Could you please report measured Latency time for the items listed next?
One number for each entry, in %.

>>> readout_number("CC/C=C\\C/C=C\\C/C=C\\C/C=C\\C/C=C\\C/C=C\\CCC(=O)NCCc1ccc(O)c(O)c1")
296
>>> readout_number("CC/C=C\\C/C=C\\C/C=C\\C/C=C\\C/C=C\\CCCCCC(=O)NCCc1ccc(O)c(O)c1")
144
>>> readout_number("CCCCC/C=C\\C/C=C\\C/C=C\\C/C=C\\CCCC(=O)NCCc1ccc(O)c(O)c1 [ARACHIDONOYL DOPAMINE]")
222

Field request: Latency time | item: CC/C=C\C/C=C\C/C=C\C/C=C\C/C=C\CCCC(=O)NCCc1ccc(O)c(O)c1
135
